Attribution: patent US20250250357A1

Target of assay: T1, human MSLN-FL-his protein (human, UniProt Q13421 296-580)
T1 construct: made in HEK293E cells, purified on nickel column; also called hMSLN-FL-his; human MSLN full-length protein; not shown: His tag
T1 sequence (Q13421 other isoform, or with tags, fused parts or gaps): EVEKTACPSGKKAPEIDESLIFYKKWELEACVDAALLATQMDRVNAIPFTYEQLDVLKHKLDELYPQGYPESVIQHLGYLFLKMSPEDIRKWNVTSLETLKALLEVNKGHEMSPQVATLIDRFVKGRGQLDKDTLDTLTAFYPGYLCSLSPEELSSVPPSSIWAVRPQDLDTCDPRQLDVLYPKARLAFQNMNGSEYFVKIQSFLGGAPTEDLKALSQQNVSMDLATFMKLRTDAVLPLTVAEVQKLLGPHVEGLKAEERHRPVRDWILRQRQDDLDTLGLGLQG
Assay notes: SPR (Biacore), antibody captured on Protein A chip;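 further: flow cell at 25 °C, antigen injected for 240 s at five concentrations from 200 nM downward, dissociation followed up to 600 s, double-referenced, fitted with Langmuir 1:1 model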
Metric: koff (s⁻¹)
Numbers only here, please. The scale is s⁻¹.

See these solved cases before continuing.
Binder	koff (s⁻¹)
S009-F7.18.10 (antibody, human IgG1, kappa, V domains shown, human-murine chimeric antibody, human IgG1/kappa constant regions) VH: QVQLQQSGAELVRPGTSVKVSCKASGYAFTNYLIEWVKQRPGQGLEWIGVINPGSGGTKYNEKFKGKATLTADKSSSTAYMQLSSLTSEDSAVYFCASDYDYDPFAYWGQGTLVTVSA VL: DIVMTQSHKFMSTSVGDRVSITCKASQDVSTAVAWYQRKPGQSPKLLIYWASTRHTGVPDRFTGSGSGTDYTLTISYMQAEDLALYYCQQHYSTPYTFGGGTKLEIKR	0.00117
S009-F7.48.1 (antibody, human IgG1, kappa, V domains shown, human-murine chimeric antibody, human IgG1/kappa constant regions) VH: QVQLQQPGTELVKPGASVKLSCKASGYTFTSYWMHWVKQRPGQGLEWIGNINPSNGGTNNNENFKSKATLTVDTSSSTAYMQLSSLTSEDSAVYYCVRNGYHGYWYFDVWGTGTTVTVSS VL: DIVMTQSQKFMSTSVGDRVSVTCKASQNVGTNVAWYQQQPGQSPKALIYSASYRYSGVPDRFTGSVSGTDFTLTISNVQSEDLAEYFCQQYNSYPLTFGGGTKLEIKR	0.000413

Noted for S009-F7.53.2 (antibody, human IgG1, kappa, V domains shown, human-murine chimeric antibody, human IgG1/kappa constant regions) VH: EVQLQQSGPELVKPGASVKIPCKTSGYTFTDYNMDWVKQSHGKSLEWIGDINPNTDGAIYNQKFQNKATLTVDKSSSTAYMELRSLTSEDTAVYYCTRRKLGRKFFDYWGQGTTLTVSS VL: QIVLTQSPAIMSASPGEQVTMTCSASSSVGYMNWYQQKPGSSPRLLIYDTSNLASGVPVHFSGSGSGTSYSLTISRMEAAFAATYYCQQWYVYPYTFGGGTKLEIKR : its koff reads 0.00065
